# MEASUREMENT DESCRIPTION: NCI Yeast Anticancer Drug Screen. Data for the cln2 rad14 strain (AID 165)
# PROTOCOL CONDITIONS: S. cerevisiae cln2 rad14 strain, at 50.0 µM, hits give high values
This is part of a sample that, as a whole, favours compounds with a hit. Of some 79,000 tested, about 15% had one in any assay.
Rule: growth inhibition of 80% or more gives Yes; anything lower gives No.

Exercise: Kindly determine if growth inhibition recorded for CC(=O)OC1CCC2(C)C(=CC(C3C=C4CC(OC(C)=O)CCC4(C)C4=C3C3CC5OC6(CCC(C)CO6)C(C)C5C3(C)CC4)C3=C2CCC2(C)C3CC3OC4(CCC(C)CO4)C(C)C32)C1 (stereo not given) is above or exactly 80%.
Solution: No

Exercise: What would you report for C[C@]12CC[C@H](O)CC1=CC[C@@H]1C2CC[C@]2(C)C(=O)NC(=O)CC12 (stereo not given in full) ?
Solution: Yes

Exercise: What would you report for `Clc1ccc2c(c1)N(CCCN1CCCC13CCCCC3)c1ccccc1S2` ?
Solution: Yes

Exercise: What would you report for `CN(C)c1nc(=Nc2cccc(Cl)c2)ss1` ?
Solution: Yes

Exercise: What would you report for `N#CC(C#N)=NNc1ccc(S(=O)(=O)O)cc1` ?
Solution: No

Exercise: What would you report for `Cc1cccc(/C=N/NC(=S)N2CCCC2)n1` ?
Solution: Yes

Exercise: What would you report for `C(=Nc1ccc(-c2cc(-c3ccccc3)nc3ccc4ccccc4c23)cc1)c1ccccc1` ?
Solution: No

Exercise: What would you report for Oc1ccc2c(c1)C(O)CCCC2 (stereo not given) ?
Solution: No

Could you now consider this next compound?
Exercise: Kindly determine if growth inhibition recorded for `COc1ccc([N+](=O)[O-])c2c(NCCCN(C)C)c3ccccc3nc12` is above or exactly 80%.
Solution: No

---

# MEASUREMENT DESCRIPTION: NCI Yeast Anticancer Drug Screen. Data for the mec2-1 strain (AID 157)
# PROTOCOL CONDITIONS: S. cerevisiae mec2-1 strain, at 50.0 µM
This is part of a sample that, as a whole, favours compounds with a hit. Of some 79,000 tested, about 15% had one in any assay. Activity calls are given as the source filed them. Rule as the data show it: active = growth inhibition above about 70%; inactive = the rest.
Permitted responses: active, inactive

Exercise: Field: outcome | Entry: `Cc1cccc(/C=N/NC(=S)N2CCCC2)n1`
Solution: active

New cases:
Exercise: Field: outcome | Entry: `O=C1C(Br)=C(c2ccccc2)O/C1=C/C(=O)c1ccc(Br)cc1`
Solution: inactive

Exercise: What would you report for `CCCCOP(=O)(CCCP(=O)(OCCCC)OCCCC)OCCCC` ?
Solution: inactive

Exercise: What would you report for `O=C(/C=C/c1cc(Cl)cc(Cl)c1O)c1cccc(O)c1` ?
Solution: active

Exercise: What would you report for COC(=O)CC1CCc2c(ccc3ccccc23)C1(C)C(=O)OC (stereo not drawn) ?
Solution: inactive

Exercise: What would you report for `CN(C)c1ccc2c(SCC(=O)OCC(=O)[C@@]3(O)CC[C@H]4[C@@H]5CCC6=CC(=O)C=C[C@]6(C)[C@H]5C(=O)C[C@@]43C)c3ccc(N(C)C)cc3nc2c1` ?
Solution: active

---

# MEASUREMENT DESCRIPTION: NCI Yeast Anticancer Drug Screen. Data for the rad52 strain (AID 147)
# PROTOCOL CONDITIONS: S. cerevisiae rad52 mutant growth inhibition; at 33.0 µM
This is part of a sample that, as a whole, favours compounds with a hit. Of some 79,000 tested, about 15% had one in any assay. The source made the active and inactive calls. Rule as the data show it: active = growth inhibition above about 70%; inactive = the rest.
Permitted responses: active, inactive

Exercise: Field: outcome | Entry: `CCCCOP(=O)(CCCP(=O)(OCCCC)OCCCC)OCCCC`
Solution: inactive

Exercise: What would you report for CCOC(=O)COc1c(OC)cc(C2C3=C(COC3=O)Oc3cc4c(cc32)OCO4)cc1OC (configuration not stated) ?
Solution: inactive

Exercise: What would you report for CCC(C)OC(=O)Nc1ccc(C)c(NC(=O)OC(C)CC)c1 (configuration not stated) ?
Solution: inactive

New cases:
Exercise: Field: outcome | Entry: Cc1ccc2c(c1)C1(SC(C)C(=O)N1c1ccc(Cl)cc1)C(=O)N2 (configuration not stated)
Solution: active

Exercise: What would you report for `CN(C)CCNc1ccc2ncnc3c2c1C(=O)c1ccccc1-3` ?
Solution: active

Exercise: What would you report for `COC(=O)Nc1cn2ccc(C(Cl)=C(Cl)Cl)cc2n1` ?
Solution: inactive

---

# MEASUREMENT DESCRIPTION: NCI Yeast Anticancer Drug Screen. Data for the sgs1 strain (AID 173)
# PROTOCOL CONDITIONS: S. cerevisiae sgs1 mutant, at 33.0 µM
The panel holds about 79,000 compounds, 15% with a hit somewhere; the sample as a whole holds those more often. The source made the active and inactive calls. Rule as the data show it: active = growth inhibition above about 70%; inactive = the rest.
Permitted responses: active, inactive

Solved entries (count: 5):
Exercise: Field: outcome | Entry: `NC(=S)NC(=S)Nc1ccccc1`
Solution: inactive

Exercise: What would you report for `NC(=O)c1c([N+](=O)[O-])cc(C(F)(F)F)cc1[N+](=O)[O-]` ?
Solution: inactive

Exercise: What would you report for `Cc1nc2ccc(N=NN(C)C)cc2[nH]1` ?
Solution: inactive

Exercise: What would you report for `CCCCOC(=O)Nc1ccc(C)c(NC(=O)OCCCC)c1` ?
Solution: inactive

Exercise: What would you report for `OCc1ccccc1Cc1ccccc1` ?
Solution: inactive

New cases:
Exercise: Field: outcome | Entry: `CCCC(=O)Oc1c(C)cc([N+](=O)[O-])cc1[N+](=O)[O-]`
Solution: active

Exercise: What would you report for CC(O)=NC(Cc1ccc2ccccc2c1)C(O)=NC(Cc1ccc(Cl)cc1)C(O)=NC(Cc1c[nH]c2ccccc12)C(O)=NC(CO)C(O)=NC(Cc1ccc(O)cc1)C(O)=NC(CCCN=C(N)N)C(O)=NC(CC(C)C)C(O)=NC(CCCN=C(N)N)C(=O)N1CCCC1C(O)=NC(C)C(=N)O (configuration not stated) ?
Solution: inactive

Exercise: What would you report for COc1ccc(C(NCCNC(c2ccc(OC)c(OC)c2)c2cc3c(cc2O)OCO3)c2cc3c(cc2O)OCO3)cc1OC (configuration not stated) ?
Solution: inactive

Exercise: What would you report for `COc1c(O)c(C=O)c(Br)c(C=O)c1O` ?
Solution: inactive

Exercise: What would you report for `CC(C)CN(CC(C)C)C(=O)c1ccc(Cl)c(Cl)c1` ?
Solution: inactive

Exercise: What would you report for `O=C(Oc1ccc2c(c1)CN(Cc1ccccc1)CO2)c1ccccc1` ?
Solution: inactive

---

# MEASUREMENT DESCRIPTION: NCI Yeast Anticancer Drug Screen. Data for the rad50EPP+ strain (AID 151)
# PROTOCOL CONDITIONS: S. cerevisiae rad50 mutant strain, at 100.0 µM
Compounds without any hit were thinned out: in the full panel of roughly 79,000, 15% have a hit. Calls of active or inactive are those of the source. No stated cut-off is given here; in the data, active means growth inhibition above about 70%; inactive means the rest.
Permitted responses: Yes = active, No = inactive

Exercise: Field: outcome | Entry: `c1ccc2c(c1)sc1c3cnccc3ccc21`
Solution: No

New cases:
Exercise: Field: outcome | Entry: `COc1oc(C(=O)NC2CCCCC2)c(-c2ccc(Cl)cc2)c1S(=O)(=O)c1ccccc1`
Solution: No

Exercise: What would you report for `C=C(Cl)COC(=O)Nc1cccc(Cl)c1` ?
Solution: Yes

Exercise: What would you report for `CC(/C=C/c1ccccc1)=N\NC(N)=S` ?
Solution: No

Exercise: What would you report for `CCCCCCCCCCCCCCCCCC(=O)NCCCN(C)C` ?
Solution: Yes

Exercise: What would you report for CCCCCCCCCCCC(O)S(=O)(=O)O (configuration not stated) ?
Solution: No

Exercise: What would you report for `Cc1cccc(/C=N/NC(=S)N2CCCC2)n1` ?
Solution: No

---

# MEASUREMENT DESCRIPTION: NCI Yeast Anticancer Drug Screen. Data for the rad52 strain (AID 147)
# PROTOCOL CONDITIONS: S. cerevisiae rad52 mutant growth inhibition; at 100.0 µM
This is part of a sample that, as a whole, favours compounds with a hit. Of some 79,000 tested, about 15% had one in any assay. Calls of active or inactive are those of the source. Rule as the data show it: active = growth inhibition above about 70%; inactive = the rest.
Permitted responses: y (active), n (inactive)

Solved entries (count: 5):
Exercise: Field: outcome | Entry: C=C1CCC(O)C/C1=C/C=C1\CCCC2(C)C1CCC2C(C)CCCC(C)C (configuration not stated)
Solution: n

Exercise: What would you report for `C[C](C)(C)[Ge]([O][Ge]([c]1ccccc1)[c]1ccccc1)([O][Ge]([c]1ccccc1)[c]1ccccc1)[C](C)(C)C` ?
Solution: y

Exercise: What would you report for `CNCCCNc1c2ccccc2nc2cccc([N+](=O)[O-])c12` ?
Solution: y

Exercise: What would you report for CCCCCCCCCCCCCCCCOP(=O)(O)OCC(N)C(=O)O (configuration not stated) ?
Solution: y

Exercise: What would you report for `CC(C)/C(Cl)=N\OC(=O)Nc1ccc(F)cc1F` ?
Solution: y

New cases:
Exercise: Field: outcome | Entry: Cc1ccc(CC2(OCCN(C)C)CCC(C(C)(C)C)CC2)cc1 (configuration not stated)
Solution: y

Exercise: What would you report for `CCOc1ccc(NC(=O)C2=C(C)NC(C)=C(C(=O)Nc3ccc(OCC)cc3)C2c2cccc([N+](=O)[O-])c2)cc1` ?
Solution: y

Exercise: What would you report for `COc1cc(O)c(O)c(C(C)(C)C)c1` ?
Solution: n

Exercise: What would you report for `NC1=NNC2(C(N)=N1)c1ccccc1-c1ccccc12` ?
Solution: y

Exercise: What would you report for `Brc1ccccc1-c1ncc(-c2ccccc2)o1` ?
Solution: n

Exercise: What would you report for `CC(C)(C)C1=CC(=CC=C2C=CN(CCCCCCCCCCCO)C=C2)C=C(C(C)(C)C)C1=O` ?
Solution: y

Exercise: What would you report for CCCCCCC(O)CNCc1ccnc2ccc(OC)cc12 (configuration not stated) ?
Solution: n

Exercise: What would you report for `COc1ccc(/C=C/c2sc3ccccc3[n+]2CCCCI)cc1OC` ?
Solution: y

Exercise: What would you report for CCC1(OC(=O)CN2CCN(CCO)CC2)C(=O)OCc2c1cc1n(c2=O)Cc2cc3ccccc3nc2-1 (configuration not stated) ?
Solution: y

Exercise: What would you report for `c1ccc(-c2cnc3ccccc3c2)cc1` ?
Solution: y

Exercise: What would you report for `CN(C)N=Nc1ccccc1C(=O)NC#N` ?
Solution: y

Exercise: What would you report for COc1ccc(C2C3=C(COC3=O)OC(C)(C)Oc3cc4c(cc32)OCO4)cc1OC (configuration not stated) ?
Solution: y

Exercise: What would you report for `CC(/C=C/c1ccccc1)=N\NC(N)=S` ?
Solution: y
